- Test system: OVCAR-4 ovarian
- measurement description: NCI tumour cell line growth inhibition, 48 h; in the data active = GI50 below about 0.43 µM; inactive = the rest
Choose the fitting class; nothing outside active, inactive is accepted.

compound: CC1(C)CC(OCCCC[P+](c2ccccc2)(c2ccccc2)c2ccccc2)CC(C)(C)N1O
target or test system: OVCAR-4 ovarian
class: active
//
compound: CN(C)C(=O)c1cc2cnc(Nc3ccc(-c4csc5c(=O)cc(N6CCNCC6)oc45)cc3)nc2n1C1CCCC1
target or test system: OVCAR-4 ovarian
class: inactive
//
compound: Nc1c(C(=O)c2cccc(CCC3(O)CCCC3)c2)cnn1-c1ccc(F)cc1
target or test system: OVCAR-4 ovarian
class: inactive
//
compound: CO/N=C(/COc1c(-c2ccccc2)oc2ccccc2c1=O)c1ccc(OC)cc1
target or test system: OVCAR-4 ovarian
class: inactive
//
compound: Nc1c(C(=O)c2cccc(C#CCN3CCOCC3)c2)cnn1-c1ccc(F)cc1
target or test system: OVCAR-4 ovarian
class: inactive
//
compound: O=C(NNc1ccccc1)OCc1ccccc1
target or test system: OVCAR-4 ovarian
class: inactive
//
compound: N#CSCc1c(Cl)cccc1Cl
target or test system: OVCAR-4 ovarian
class: inactive
//
compound: CCN(C(=O)CCl)C(C)(C)C(SSSC(c1ccc(Cl)cc1)C(C)(C)N(CC)C(=O)CCl)c1ccc(Cl)cc1 (stereo not given)
target or test system: OVCAR-4 ovarian
class: inactive

Answer briefly: the call reported for COc1cc2ccnc3c2c(c1OC)-c1ccc(=O)ccc1-3 in this assay.
inactive

Answer briefly: the call reported for COc1c(NC(=O)CC(C)=O)[c]([Hg][O]C(C)=O)c(OC)c(Cl)[c]1[Hg][O]C(C)=O in this assay.
inactive
